Assign DC50 to each entry below.
target: IRAK4 (Homo sapiens (Human), UniProt Q9NWZ3); assay: IRAK4 MSD degradation in OCI-LY10; format: cell-based; settings: OCI-LY10, 4 hrs, MSD; read-out: IRAK4 MSD degradation in OCI-LY10 at 4 hrs: Average external-Abs DC50
Sequence (Q9NWZ3 whole entry): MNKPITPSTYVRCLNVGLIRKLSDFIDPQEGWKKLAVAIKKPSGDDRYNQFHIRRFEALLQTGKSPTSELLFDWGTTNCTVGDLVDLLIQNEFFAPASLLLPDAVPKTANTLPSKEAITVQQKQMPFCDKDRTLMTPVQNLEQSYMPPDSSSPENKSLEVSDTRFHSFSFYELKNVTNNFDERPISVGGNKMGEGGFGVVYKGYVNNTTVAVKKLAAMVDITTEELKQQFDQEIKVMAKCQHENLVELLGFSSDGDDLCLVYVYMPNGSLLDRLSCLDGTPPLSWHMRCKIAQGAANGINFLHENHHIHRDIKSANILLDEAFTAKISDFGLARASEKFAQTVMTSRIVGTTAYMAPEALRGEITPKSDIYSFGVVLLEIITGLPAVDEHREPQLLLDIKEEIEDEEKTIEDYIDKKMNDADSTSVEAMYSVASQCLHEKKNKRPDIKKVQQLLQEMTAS

compound="O=C1CCC(N2C(=O)c3cccc(NC4CC5(CCN(C[C@H]6CC[C@H](n7cc(NC(=O)c8cnn9ccc(N%10C[C@H]%11C[C@@H]%10CO%11)nc89)c(C(F)F)n7)CC6)CC5)C4)c3C2=O)C(=O)N1 (some centres unmarked)" experimental_endpoint=DC50 result="10 to 100 nM"
compound="CN(CCN(C)CC1CCC(n2cc(NC(=O)c3cnn4ccc(N5C[C@H]6C[C@@H]5CO6)nc34)c(C(F)F)n2)CC1)Cc1ccc(COc2cccc3c2C(=O)N(C2CCC(=O)NC2=O)C3=O)cc1 (some centres unmarked)" experimental_endpoint=DC50 result="100 to 1000 nM"
compound="Cn1c(=O)n(C2CCC(=O)NC2=O)c2ccc(CCCN3CCO[C@@H](CNC[C@H]4CC[C@H](n5cc(NC(=O)c6coc(-c7ccnc(NCC8CC8)c7)n6)c(C(F)F)n5)CC4)C3)cc21 (some centres unmarked)" experimental_endpoint=DC50 result="< 10 nM"
compound="CN(CCCCOCCCCc1cccc2c1n(C)c(=O)n2C1CCC(=O)NC1=O)C[C@H]1CC[C@H](n2cc(NC(=O)c3coc(-c4ccnc(NCC5CC5)c4)n3)c(C(F)F)n2)CC1 (some centres unmarked)" experimental_endpoint=DC50 result="< 10 nM"

Q) Any idea what DC50 was measured for CN(CCN1CCN(c2cccc3c2C(=O)N(C2CCC(=O)NC2=O)C3=O)CC1)C[C@H]1CC[C@H](n2cc(NC(=O)C3CNN4C=CC(N5CCOCC5)=NC34)c(C(F)F)n2)CC1 (some centres unmarked) ?
A) 100 to 1000 nM

###

Assign DC50 to each entry below.
molecular target: IRAK4 (Homo sapiens (Human)); experiment: IRAK4 MSD degradation in OCI-LY10; format: cell-based; conditions: OCI-LY10, 4 hrs, MSD; read-out: IRAK4 MSD degradation in OCI-LY10 at 4 hrs: Average external-Abs DC50

Solved cases (2 shown):
compound="CN(CCCOCCNc1cccc2c1C(=O)N(C1CCC(=O)NC1=O)C2=O)C[C@H]1CC[C@H](n2cc(NC(=O)c3coc(-c4ccnc(NCC5CC5)c4)n3)c(C(F)F)n2)CC1 (some centres unmarked) [I-168]" result="10 to 100 nM"
compound="CN1C(=O)C(C2CCC(=O)NC2=O)c2ccc(CN3CCC(N(C)C[C@H]4CC[C@H](n5cc(NC(=O)c6coc(-c7ccnc(NCC8CC8)c7)n6)c(C(F)F)n5)CC4)CC3)cc21 (some centres unmarked) [I-239]" result="10 to 100 nM"

// each listed compound needs a value for DC50
1. Cn1c(=O)n(C2CCC(=O)NC2=O)c2cccc(CCCOCCOCCOCCOCC(=O)N3CCN([C@H]4CC[C@H](Nc5ncnc6[nH]cc(C7CCOCC7)c56)CC4)CC3)c21 (some centres unmarked) [I-53]
2. CN(C[C@@H]1CN(Cc2cccc3c2n(C)c(=O)n3C2CCC(=O)NC2=O)CCO1)C[C@H]1CC[C@H](n2cc(NC(=O)c3cnn4ccc(N5C[C@H]6C[C@@H]5CO6)nc34)c(C(F)F)n2)CC1 (some centres unmarked) [I-411]
3. O=C1CCC(n2c(=O)oc3c(CCCOC4CCN(C[C@H]5CC[C@H](n6cc(NC(=O)c7cnn8ccc(N9CCNCC9)nc78)c(C(F)F)n6)CC5)CC4)cccc32)C(=O)N1 (some centres unmarked) [I-165]

A)
1. 100 to 1000 nM
2. > 1000 nM
3. 10 to 100 nM

###

Target: IRAK4 (Homo sapiens (Human))
Experiment: IRAK4 MSD degradation in OCI-LY10
Assay type: cell-based
Conditions: OCI-LY10, 4 hrs; read-out: IRAK4 MSD degradation in OCI-LY10 at 4 hrs: DC50
Protocol: Degradation of IRAK4 in OCI-LY10 was quantitatively measured using Meso Scale Discovery technology. […] Compounds were then added to the assay plates with a final top concentration of 1 to 10 μM in a 1:3 dilution series with total of 8 doses. […] The assay plates were then incubated at room temperature for 1 hour, washed 3 times with 150 μL/well TB ST buffer, and 150 μL/well MSD reading buffer (Meso Scale Discovery catalog number R92TC-2) was added. […]
experimental.endpoint: DC50

// each listed compound needs a value for DC50
1. Cn1c(=O)n(C2CCC(=O)NC2=O)c2cccc(CCCOC3CCN(C[C@H]4CC[C@H](n5cc(NC(=O)c6cnn7ccc(N8C[C@H]9CC[C@@H](C8)O9)nc67)c(C(F)F)n5)CC4)CC3)c21 (stereo partly drawn) [I-521]
2. CN1C(=O)C(C2CCC(=O)NC2=O)c2cc(CCCOC3CCN(C[C@H]4CC[C@H](C5N=C(NC(=O)c6cnn7ccc(N8C[C@H]9C[C@@H]8CO9)nc67)C(C(F)F)=N5)CC4)CC3)ccc21 (stereo partly drawn) [I-553]
3. CN(C(=O)c1cnn2ccc(N3CCOCC3)nc12)c1cn([C@H]2CC[C@H](CN3CCC(OCCCNc4cccc5c4C(=O)N(C4CCC(=O)NC4=O)C5=O)CC3)CC2)nc1C(F)F (stereo partly drawn) [I-501]

A)
1. 0.01 to 0.1 µM
2. 0.1 to 1 µM
3. > 1 µM

###

Assign IC50 to each entry below.
system: OCI-LY10; assay: CTG Cell Viability Assay - OCI-LY10; type: cell-based, human; conditions: Homo sapiens, OCI-Ly10, 96 h, OCI-LY10, 4 days; read-out: CTG Cell Viability Assay - OCI-LY10: Average external-IC50

Solved cases (4 shown):
molecule="O=C1CCC(N2C(=O)c3ccnc(NCCCOC4CCN(Cc5ccc(-n6cc(NC(=O)c7cnn8ccc(N9CCOCC9)nc78)c(C(F)F)n6)cc5)CC4)c3C2=O)C(=O)N1 (centres unmarked)" result="> 1 µM"
molecule="CN(CC1CC1)c1ccn2ncc(C(=O)Nc3cn([C@H]4CC[C@H](CN(C)[C@H]5CC[C@H](Nc6cccc7c6C(=O)N(C6CCC(=O)NC6=O)C7=O)CC5)CC4)nc3C(F)F)c2n1 (some centres unmarked)" result="0.05 to 0.1 µM"
molecule=CN[C@@H](C)C(=O)N[C@H](C(=O)N1Cc2cc(OCCOCCOCCNC[C@H]3CC[C@H](n4cc(NC(=O)c5coc(-c6ccnc(NCC7CC7)c6)n5)c(C(F)F)n4)CC3)ccc2C[C@H]1C(=O)N[C@@H]1CCCc2ccccc21)C(C)(C)C result="> 1 µM"
molecule="CN(C[C@H]1CC[C@H](n2cc3cc(NC(=O)c4cccc(C(F)(F)F)n4)c(C(C)(C)O)cc3n2)CC1)C1CCN(Cc2cccc3c2n(C)c(=O)n3C2CCC(=O)NC2=O)CC1 (some centres unmarked)" result="> 1 µM"

Moving on to the next molecule.
Q) Any idea what IC50 was measured for O=C1CCC(n2c3ccccc3c3c(CCCOC4CCN(C[C@H]5CC[C@H](n6cc(NC(=O)c7cnn8ccc(N9CCOCC9)nc78)c(C(F)F)n6)CC5)CC4)ccnc32)C(=O)N1 (some centres unmarked) ?
A) > 1 µM

###

Molecular target: IRAK4 (Homo sapiens (Human))
Assay: IRAK4 MSD degradation in OCI-LY10
Assay type: cell-based
Details: OCI-LY10, 4 hrs, MSD; read-out: IRAK4 MSD degradation in OCI-LY10 at 4 hrs: Average external-Abs DC50
Description: Degradation of IRAK4 in OCI-LY10 was quantitatively measured using Meso Scale Discovery technology. […] Compounds were then added to the assay plates with a final top concentration of 1 to 10 μM in a 1:3 dilution series with total of 8 doses. […] The assay plates were then incubated at room temperature for 1 hour, washed 3 times with 150 μL/well TB ST buffer, and 150 μL/well MSD reading buffer (Meso Scale Discovery catalog number R92TC-2) was added. […]
experimental.endpoint: DC50

compound="CN(CCN1CCO[C@@H](CCNc2cccc3c2C(=O)N(C2CCC(=O)NC2=O)C3=O)C1)C[C@H]1CC[C@H](n2cc(NC(=O)c3coc(-c4ccnc(NCC5CC5)c4)n3)c(C(F)F)n2)CC1 (stereo partly shown)" result="10 to 100 nM"
compound="O=C1CCC(N2C(=O)c3cccc(NCC4CCN(C[C@H]5CC[C@H](n6cc(NC(=O)c7cnn8ccc(N9CCOCC9)nc78)c(C(F)F)n6)CC5)CC4)c3C2=O)C(=O)N1 (stereo partly shown)" result="> 1000 nM"
compound="CN(CCCOCCCc1cccc2c1n(C)c(=O)n2C1CCC(=O)NC1=O)C[C@H]1CC[C@H](n2cc(NC(=O)c3cnn4ccc(N5CCCCC5)nc34)c(C(F)F)n2)CC1 (stereo partly shown)" result="10 to 100 nM"
compound="CN(CC[C@@H]1CN(CCCc2ccc3c(c2)n(C)c(=O)n3C2CCC(=O)NC2=O)CCO1)C[C@H]1CC[C@H](n2cc(NC(=O)c3coc(-c4ccnc(NCC5CC5)c4)n3)c(C(F)F)n2)CC1 (stereo partly shown)" result="< 10 nM"
compound="CN(C[C@H]1CC[C@H](n2cc(NC(=O)c3cnn4ccc(N5CCOCC5)nc34)c(C(F)F)n2)CC1)[C@H]1CC[C@@H](Nc2cccc3c2C(=O)N(C2CCC(=O)NC2=O)C3=O)CC1 (stereo partly shown)" result="100 to 1000 nM"

// each listed compound needs a value for DC50
1. Cn1c(=O)n(C2CCC(=O)NC2=O)c2cccc(CCCN3CC4(CCN(C(=O)[C@H]5CC[C@H](n6cc(NC(=O)c7cnn8ccc(N9C[C@H]%10C[C@@H]9CO%10)nc78)c(C(F)F)n6)CC5)CC4)C3)c21 (stereo partly shown)
2. O=C1CCC(N2C(=O)c3cccc(NC4CCN(C5CCN(C[C@H]6CC[C@H](n7cc(NC(=O)c8cnn9ccc(N%10CCOCC%10)nc89)c(C(F)F)n7)CC6)CC5)CC4)c3C2=O)C(=O)N1 (stereo partly shown)
3. O=C1CCC(N2C(=O)c3cccc(NCCc4ccc(C5CCN(C[C@H]6CC[C@H](n7cc(NC(=O)c8cnn9ccc(N%10C[C@H]%11C[C@@H]%10CO%11)nc89)c(C(F)F)n7)CC6)CC5)cc4)c3C2=O)C(=O)N1 (stereo partly shown)
4. O=C1CCC(N2C(=O)c3cccc(CCCOC4CCN(C[C@H]5CC[C@H](n6cc(NC(=O)c7cnn8ccc(N9CCOCC9)nc78)c(C(F)F)n6)CC5)CC4)c3C2=O)C(=O)N1 (stereo partly shown)
5. O=C1CCC(N2C(=O)c3cccc(NCCCOC[C@@H]4CN(Cc5ccc(-n6cc(NC(=O)c7coc(-c8ccnc(NCC9CC9)c8)n7)c(C(F)F)n6)cc5)CCO4)c3C2=O)C(=O)N1 (stereo partly shown)

A)
["< 10 nM", "< 10 nM", "100 to 1000 nM", "10 to 100 nM", "100 to 1000 nM"]

Hello, the source for this data is patent US11352350B2, in case you need it.
